Entries and their measured IC50 follow.
# target: TIGIT/CD155 complex (Homo sapiens, UniProt Q495A1)
# Sequence (Q495A1 22-141 limits assumed): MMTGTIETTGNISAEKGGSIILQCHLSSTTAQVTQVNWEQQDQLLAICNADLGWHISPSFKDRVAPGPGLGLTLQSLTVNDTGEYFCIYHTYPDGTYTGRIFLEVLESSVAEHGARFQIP
# procedure.text: HTRF TIGIT/CD155 binding assay (blocking of TIGIT/CD155 complex)
# run.parameters: read-out: IC50, protein-protein blocking activity for TIGIT/CD155 complex
Your answer is read as µM, so omit the unit and give the number.

Value of IC50 reported for the compound COc1ccc(C(NC(=O)[C@H](Cc2ccsc2)NC(=O)/C=C/c2ccc3cc(OC)ccc3c2)c2ccc(OCC(=O)O)cc2)c(OC)c1 (some centres unmarked) is 3.9

Then this compound:
Value of IC50 reported for the compound COc1ccc(C(NC(=O)C(Cc2ccsc2)NC(=O)C(C)c2ccc3cc(OC)ccc3c2)c2ccc(OCC(=O)O)cc2)c(OC)c1 (centres unmarked) is 20.7
